Please respond with reported viability, T/C for every item in the list.
Tested on: 898857-211-R-J1-PDC complex spheroids, growth % test/control
test_protocol: Anticancer human tumor 898857-211-R-J1-PDC patient-derived melanoma cell line growth inhibition [RAS]
condition: second compound 0.00949 µM; first compound 1 µM; active compounds read low
Expressed in %, but write only the number.

Value sought: viability, T/C, system 898857-211-R-J1-PDC complex spheroids, growth % test/control, item CC(=O)OC12COC1CC(O)C1(C)C(=O)C(O)C3=C(C)C(OC(=O)C(O)C(NC(=O)OC(C)(C)C)c4ccccc4)CC(O)(C(OC(=O)c4ccccc4)C21)C3(C)C (configuration not stated) + CCn1c(-c2cccnc2C(C)OC)c2c3cc(ccc31)N1CCOC(CC(NC(=O)C(C(C)C)N(C)C(=O)C3(F)CCN(C(=O)C#CC(C)(C)N(C)C)CC3)C(=O)N3CCCC(N3)C(=O)OCC(C)(C)C2)C1 . Result: 11.8

GET /values?item= C=CC(=O)Nc1cc(Nc2nccc(-c3cn(C)c4ccccc34)n2)c(OC)cc1N(C)CCN(C)C + CCn1c(-c2cccnc2C(C)OC)c2c3cc(ccc31)N1CCOC(CC(NC(=O)C(C(C)C)N(C)C(=O)C3(F)CCN(C(=O)C#CC(C)(C)N(C)C)CC3)C(=O)N3CCCC(N3)C(=O)OCC(C)(C)C2)C1 &system= 898857-211-R-J1-PDC complex spheroids, growth % test/control returns viability, T/C: 59.9

* * *

Tested on: 898857-211-R-J1-PDC complex spheroids, growth % test/control
test_protocol: Anticancer human tumor 898857-211-R-J1-PDC cell line growth inhibition [RAS];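 note: spheroids exposed to compound for seven days before readout; 100% = DMSO vehicle control wells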
condition: second compound 0.3 µM; first compound 0.316 µM; active compounds read low
measured_metric: viability, T/C

Lab note: Cc1nc(N2CCC3(CC2)COC(C)C3N)c(CO)nc1Sc1ccnc(N)c1Cl (stereo not drawn) + CCn1c(-c2cccnc2C(C)OC)c2c3cc(ccc31)N1CCOC(CC(NC(=O)C(C(C)C)N(C)C(=O)C3(F)CCN(C(=O)C#CC(C)(C)N(C)C)CC3)C(=O)N3CCCC(N3)C(=O)OCC(C)(C)C2)C1 gave viability, T/C of 77.4%

For this molecule ( CC(=O)OC12COC1CC(O)C1(C)C(=O)C(O)C3=C(C)C(OC(=O)C(O)C(NC(=O)OC(C)(C)C)c4ccccc4)CC(O)(C(OC(=O)c4ccccc4)C21)C3(C)C (stereo not drawn) + CCn1c(-c2cccnc2C(C)OC)c2c3cc(ccc31)N1CCOC(CC(NC(=O)C(C(C)C)N(C)C(=O)C3(F)CCN(C(=O)C#CC(C)(C)N(C)C)CC3)C(=O)N3CCCC(N3)C(=O)OCC(C)(C)C2)C1 ), measured viability, T/C is 8.89%

viability, T/C in this record for CCC(CC)c1cc(NC2CCC(N)C2)n2nccc2n1 (stereo not drawn) + CCn1c(-c2cc(N3CCN(C)CC3)cnc2C(C)OC)c2c3cc(ccc31)-c1csc(n1)CC(NC(=O)C1CC1C)C(=O)N1CCCC(N1)C(=O)OCC(C)(C)C2 : 84.8%

* * *

System: 898857-211-R-J1-PDC complex spheroids, growth % test/control
test_protocol: Anticancer human tumor 898857-211-R-J1-PDC cell line growth inhibition [RAS];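 note: spheroids exposed to compound for seven days before readout; 100% = DMSO vehicle control wells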
condition: second compound 0.0949 µM; first compound 10 µM; active compounds read low
measured_metric: viability, T/C

For reference, reported viability, T/C for NC1c2ccccc2OC12CCN(c1cnc3c(N4CCCc5ncccc54)n[nH]c3n1)CC2 (centres undefined) + CCn1c(-c2cc(N3CCN(C)CC3)cnc2C(C)OC)c2c3cc(ccc31)-c1csc(n1)CC(NC(=O)C1CC1C)C(=O)N1CCCC(N1)C(=O)OCC(C)(C)C2 stands at 43%

Documented viability, T/C of Cc1nc(N2CCC3(CC2)COC(C)C3N)c(CO)nc1Sc1ccnc(N)c1Cl (centres undefined) + CCn1c(-c2cccnc2C(C)OC)c2c3cc(ccc31)N1CCOC(CC(NC(=O)C(C(C)C)N(C)C(=O)C3(F)CCN(C(=O)C#CC(C)(C)N(C)C)CC3)C(=O)N3CCCC(N3)C(=O)OCC(C)(C)C2)C1 : 88.6%

Please fill in: viability, T/C reported for CC1(O)CCCC1n1c(=O)c(C(F)F)cc2cnc(NC3CCN(S(C)(=O)=O)CC3)nc21 (centres undefined) + CCn1c(-c2cc(N3CCN(C)CC3)cnc2C(C)OC)c2c3cc(ccc31)-c1csc(n1)CC(NC(=O)C1CC1C)C(=O)N1CCCC(N1)C(=O)OCC(C)(C)C2 = 16.9%

# viability, T/C (compound: Cc1nc(N2CCC3(CC2)COC(C)C3N)c(CO)nc1Sc1ccnc(N)c1Cl (centres undefined) + CCn1c(-c2cc(N3CCN(C)CC3)cnc2C(C)OC)c2c3cc(ccc31)-c1csc(n1)CC(NC(=O)C1CC1C)C(=O)N1CCCC(N1)C(=O)OCC(C)(C)C2 ) is 84.7%

* * *

For each record, write down the corresponding viability, T/C.
System: 898857-211-R-J1-PDC complex spheroids, growth % test/control
test_protocol: Anticancer human tumor 898857-211-R-J1-PDC cell line growth inhibition [RAS];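 note: spheroids exposed to compound for seven days before readout; 100% = DMSO vehicle control wells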
condition: second compound 1 µM; first compound 0.03 µM; active compounds read low
Excerpt: RAS pathway inhibitors in Combinations in Complex Spheroids A high-throughput screen of multi-cell type tumor spheroids was designed to identify active combinations of RAS pathway inhibitors and targeted small molecules. Complex spheroids include a stromal component modeled by human endothelial cells (HUVEC) and fibroblasts modeled by human mesenchymal stem cells (MSCs). […] Compounds. […] If the clinical Cmax for an agent had not been determined, the highest concentration tested was 10 microM. […]
Express the result in % but write the number alone.

Entry CCc1c2c(nc3ccc(O)cc13)-c1cc3c(c(=O)n1C2)COC(=O)[C@]3(O)CC + C#Cc1c(F)ccc2cc(O)cc(-c3ncc4c(N5CC6CCC(C5)N6)nc(OCC56CCCN5CC(F)C6)nc4c3F)c12 , viability, T/C reported as 11.3

viability, T/C measured on CC1(C)CCC(Nc2ncc(C(F)(F)F)c(-c3c[nH]c4c(P(C)(C)=O)c(C#N)ccc34)n2)CN1 (centres undefined) + C#Cc1c(F)ccc2cc(O)cc(-c3ncc4c(N5CC6CCC(C5)N6)nc(OCC56CCCN5CC(F)C6)nc4c3F)c12 = 24.4

Record summary for CC1(C)CCC(Nc2ncc(C(F)(F)F)c(-c3c[nH]c4c(P(C)(C)=O)c(C#N)ccc34)n2)CN1 (centres undefined) + C=CC(=O)N1CCN(c2nc(OCC3CCCN3C)nc3c(F)c(-c4nc(N)cc(C)c4C(F)(F)F)c(Cl)cc23)C(C)C1 : reported viability, T/C = 18.3

response.value for CCc1c2c(nc3ccc(O)cc13)-c1cc3c(c(=O)n1C2)COC(=O)[C@]3(O)CC + C=CC(=O)N1CCN(c2nc(OCC3CCCN3C)nc3c(F)c(-c4nc(N)cc(C)c4C(F)(F)F)c(Cl)cc23)C(C)C1 (field: viability, T/C) = 11.4

* * *

Test system: 898857-211-R-J1-PDC complex spheroids, growth % test/control
test_protocol: Anticancer human tumor 898857-211-R-J1-PDC cell line growth inhibition [RAS];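 note: spheroids exposed to compound for seven days before readout; 100% = DMSO vehicle control wells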
condition: second compound 0.00949 µM; first compound 1 µM; active compounds read low
Param label: returns Fulfilled when viability, T/C < 50%, returns Not fulfilled otherwise, including exact equality.

Determine if C=CC(=O)Nc1cc(Nc2nccc(-c3cn(C)c4ccccc34)n2)c(OC)cc1N(C)CCN(C)C + CCn1c(-c2cc(N3CCN(C)CC3)cnc2C(C)OC)c2c3cc(ccc31)-c1csc(n1)CC(NC(=O)C1CC1C)C(=O)N1CCCC(N1)C(=O)OCC(C)(C)C2 shows viability, T/C strictly lower than 50%.
Fulfilled

Dear colleague, could you confirm whether viability, T/C of CC(=O)OC12COC1CC(O)C1(C)C(=O)C(O)C3=C(C)C(OC(=O)C(O)C(NC(=O)OC(C)(C)C)c4ccccc4)CC(O)(C(OC(=O)c4ccccc4)C21)C3(C)C (stereo not given) + CCn1c(-c2cc(N3CCN(C)CC3)cnc2C(C)OC)c2c3cc(ccc31)-c1csc(n1)CC(NC(=O)C1CC1C)C(=O)N1CCCC(N1)C(=O)OCC(C)(C)C2 falls below 50%? Thanks.
Fulfilled

Here's an entry: Cc1nc(N2CCC3(CC2)COC(C)C3N)c(CO)nc1Sc1ccnc(N)c1Cl (stereo not given) + CCn1c(-c2cccnc2C(C)OC)c2c3cc(ccc31)N1CCOC(CC(NC(=O)C(C(C)C)N(C)C(=O)C3(F)CCN(C(=O)C#CC(C)(C)N(C)C)CC3)C(=O)N3CCCC(N3)C(=O)OCC(C)(C)C2)C1 . Is its viability, T/C below 50%?
Not fulfilled

Would you kindly verify if viability, T/C of Nc1ccn(C2OC(CO)C(O)C2(F)F)c(=O)n1 (stereo not given) + CCn1c(-c2cc(N3CCN(C)CC3)cnc2C(C)OC)c2c3cc(ccc31)-c1csc(n1)CC(NC(=O)C1CC1C)C(=O)N1CCCC(N1)C(=O)OCC(C)(C)C2 is strictly less than 50%?
Fulfilled
